Measured values drawn from PubChem BioAssay (NCI) for this set.

tested on: CCRF-CEM leukemia; assay: NCI tumour cell line growth inhibition, 48 h
ENDPOINT NAME: TGI

# MOLECULE, VAL
data = [
    ("CO[C@@H](c1ccccc1)[C@H](O)[C@@](O)(c1ccccc1)P(=O)(OC)OC", "> 100 µM"),
    ("CCOC(=O)c1ccc(-c2cccs2)[nH]1", "> 100 µM"),
    ("CO/C(N)=C(\\C#N)N=Cc1cccs1", "> 100 µM"),
    ("Nc1nc(N)c2ncn(Cc3ccccc3)c2n1", "> 100 µM"),
    ("CCOC(=O)C1C(=O)C(=O)N2CCc3c([nH]c4ccccc34)C12 (stereo not given)", "> 100 µM"),
    ("COc1cccc2c(Nc3ccc(C(=O)NCCN4CCNCC4)cc3)cc(-c3ccccc3)nc12", "91.7 µM"),
    ("COC(=O)C1=C(C)N(NC(=O)Nc2ccccc2)C2(N)N(NC(=O)Nc3ccccc3)C(C)=C(C(=O)OC)C12C(=O)OC (stereo not given)", "> 100 µM"),
    ("COc1cc2nccc(Oc3ccc(NC(=O)C4(C(=O)Nc5ccc(F)cc5)CC4)cc3)c2cc1OC", "> 100 µM"),
    ("C=CCCC1(CCP(=O)(c2ccccc2)c2ccccc2)OCCO1", "> 100 µM"),
    ("CN1CCN(Cc2ccc(NC(=O)c3cncc(C#Cc4cnc5cccnn45)c3)cc2C(F)(F)F)CC1", "15.2 µM"),
]
